System: OV90
Assay: Primary qHTS to identify gynecologic anti-cancer compounds using libraries of approved drugs and bioactive compounds (AID 1345084); note: nearly all actives have a fitted effect of over 55% in size
Details: Gynecologic cancer cell panel viability, ATPlite luminescence, 48 h; series mostly up to 57.5 µM
Text: National Center for Advancing Translational Sciences [NCATS] Assay Overview: Chemotherapeutic drug responses vary from cancer to cancer and from patient to patient. […] ATPlite is a luminescence based assay reliant on the conversion of a luciferase substrate to light in the presence of ATP. As a cytotoxic compound will suppress growth and decrease the number of cells, the concentration of ATP will decrease, and less light signal will be detected in the well. […]
Records with an inconclusive call do not appear. Active and inactive are the calls of the source. Calls come from the whole dose curve; as a rule, active = well fitted cell-killing curve with a large enough effect; inconclusive = small, poorly fitted or top-dose-only effect, or effect the other way; inactive = flat fitted curve, though single readings scatter.
Permitted responses: 1 (yes) (active), 0 (no) (inactive)

Field: example entries. Status: answers known.
O=C(C1CCCCC1)N1CC(=O)N2CCc3ccccc3C2C1 (configuration not stated) | 0 (no)
O=c1[nH]cc(F)c(=O)[nH]1 | 0 (no)
COc1ccc2[nH]cc(CCNC(C)=O)c2c1 | 0 (no)
CC12CC3CC(C)(C1)CC(N)(C3)C2 | 0 (no)
CC(C)(Oc1ccc(C2CC2(Cl)Cl)cc1)C(=O)O (configuration not stated) | 0 (no)
Cn1c(=O)c2[nH]cnc2n(C)c1=O | 0 (no)
CC(C)(C)C(=O)Oc1ccc(S(=O)(=O)Nc2ccccc2C(=O)NCC(=O)O)cc1 | 0 (no)
Cc1cnc(C(=O)NCCc2ccc(S(=O)(=O)NC(=O)NC3CCCCC3)cc2)cn1 | 0 (no)
CN(C)C(=N)N=C(N)N | 0 (no)
CC(C(=O)O)c1cccc(C(=O)c2ccccc2)c1 (configuration not stated) | 0 (no)

What classification did "NC(=O)OCC(COC(N)=O)c1ccccc1" end up with in this test? 0 (no)

Identify the outcome logged in this assay for the compound shown: "NS(=O)(=O)c1cc2c(cc1Cl)NCNS2(=O)=O" 0 (no)

So what was the verdict on COc1ccccc1OCC(O)CN1CCN(CC(=O)Nc2c(C)cccc2C)CC1 (configuration not stated) in this test? 0 (no)

Fill in: this test's call for "NCCc1cnc[nH]1" is ___ 0 (no)

What did the test return for "O=C(c1ccc(OCCN2CCCCC2)cc1)c1c(-c2ccc(O)cc2)sc2cc(O)ccc12" ? 0 (no)

What was the test verdict on CCc1cccc2c3c([nH]c12)C(CC)(CC(=O)O)OCC3 (configuration not stated) ? 0 (no)

Identify the outcome logged in this assay for the compound shown: "CC[N+](CC)(CC)CCOc1cccc(OCC[N+](CC)(CC)CC)c1OCC[N+](CC)(CC)CC" 0 (no)

Recorded test outcome, item CC(C)NCC(O)COc1ccc(CCOCC2CC2)cc1 (configuration not stated) 0 (no)

Give the logged outcome of this assay for the following compound: "C[C@H]1c2cccc(O)c2C(O)=C2C(=O)[C@]3(O)C(O)=C(C(N)=O)C(=O)[C@@H](N(C)C)[C@@H]3[C@@H](O)[C@@H]21" 0 (no)

Hi team, can someone confirm the assay call for "Cc1cn([C@H]2C=C[C@@H](CO)O2)c(=O)[nH]c1=O" ? 0 (no)

Which outcome was assigned to "CN(CCOc1ccc(NS(C)(=O)=O)cc1)CCc1ccc(NS(C)(=O)=O)cc1" in this test? 0 (no)

I'd appreciate the recorded outcome for "C[C@](N)(Cc1ccc(O)c(O)c1)C(=O)O" from this test. 0 (no)

Hi team, can someone confirm the assay call for "CN(C)c1nc(N(C)C)nc(N(C)C)n1" ? 0 (no)

In this assay, the call recorded for COc1ccc(C2CNC(=O)C2)cc1OC1CCCC1 (configuration not stated) was what? 0 (no)

Hello, I am checking results. What call was entered for "CCOC(=O)c1ncn2c1CN(C)C(=O)c1cc(F)ccc1-2" ? 0 (no)

Recorded test outcome, item "Clc1ccc2c(c1)C(N1CCNCC1)=Nc1ccccc1O2" 0 (no)

Hi, do you know how "NCCS(=O)(=O)O" came out in this test? 0 (no)

###

target: Cytochrome P450 2C9 (Homo sapiens) (UniProt P11712); experiment: Cytochrome P450 family 2 subfamily C member 9 (CYP2C9) small molecule antagonists: luciferase biochemical (cell-free) qHTS assay (AID 1645842); conditions: P450-Glo CYP2C9 enzyme assay, luciferin luminescence; series mostly up to 57.4 µM; note: nearly all actives have a fitted effect of over 55% in size
Sequence (P11712 whole entry, looked up): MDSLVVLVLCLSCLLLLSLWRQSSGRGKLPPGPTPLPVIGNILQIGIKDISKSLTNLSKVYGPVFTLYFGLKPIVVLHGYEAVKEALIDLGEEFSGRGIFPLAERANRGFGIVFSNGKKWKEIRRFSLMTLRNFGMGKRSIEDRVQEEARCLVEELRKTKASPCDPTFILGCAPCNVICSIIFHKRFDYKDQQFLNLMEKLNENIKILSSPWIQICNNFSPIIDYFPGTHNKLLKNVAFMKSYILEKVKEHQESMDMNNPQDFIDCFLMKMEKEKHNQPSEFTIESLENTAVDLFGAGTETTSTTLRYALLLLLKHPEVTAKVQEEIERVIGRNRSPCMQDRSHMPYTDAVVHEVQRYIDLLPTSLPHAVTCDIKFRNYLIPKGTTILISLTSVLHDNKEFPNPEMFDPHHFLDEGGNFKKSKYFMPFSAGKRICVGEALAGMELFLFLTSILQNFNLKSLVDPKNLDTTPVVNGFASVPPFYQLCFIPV
Records with an inconclusive call do not appear. Active and inactive are the calls of the source. Calls come from the whole dose curve; as a rule, active = well fitted inhibition curve with a large enough effect in the repeat runs; inconclusive = weak or mixed curves; inactive = no such curve, though single readings can be large or run the other way.
The categories you may choose from are y = active, n = inactive

Reference set, count: 5
C[C@H]1c2cccc(O)c2C(O)=C2C(=O)[C@]3(O)C(O)=C(C(N)=O)C(=O)[C@@H](N(C)C)[C@@H]3[C@@H](O)[C@@H]21 | n
N[C@@H](Cc1c[nH]c2ccc(O)cc12)C(=O)O | y
Nc1nc2c(ncn2COC(CO)CO)c(=O)[nH]1 | n
CC(C(=O)O)c1cccc(C(=O)c2ccccc2)c1 (stereo unspecified) | y
Cc1cc(C(C)(C)C)c(O)c(C)c1CC1=NCCN1 | n

Please examine the following record next.
Would you mind telling me which call this test gave CC1(CN2CCC(n3c(=O)[nH]c4ccccc43)CC2)OCc2ccccc2-n2cccc21 (stereo unspecified) ? y

###

Test: Quantitative High-Throughput drug screen in 47 multiple myeloma cell lines against the NCATS MIPE library collection: XG1_PLB cell viability assay (AID 1919866); note: nearly all actives have a fitted effect of over 35% in size
Conditions: CellTiter-Glo ATP, 48 h; series mostly up to 45.8 µM
Source text: PI: Beverly A. Mock Ph.D. Laboratory of Cancer Biology and Genetics, Center for Cancer Research, National Cancer Institute, National Institute of Health, Bethesda, Maryland […] 5; Detector; 425V; Luminescence; Viewlux PerkinElmer. […] 1. […] Briefly, the corresponding myeloma cell lines were screened in 1,536-well plates with 500 cells, 5-uL per well for inhibition of cell viability (assessed by measuring ATP levels with CellTiterGlo). […]
Inconclusive results are not listed. Activity calls are given as the source filed them. Calls come from the whole dose curve; as a rule, active = well fitted cell-killing curve with a large enough effect; inconclusive = small, poorly fitted or top-dose-only effect, or effect the other way; inactive = no such curve, though single readings can be large or run the other way.
The categories you may choose from are active, inactive

Here's what some known entries look like.
Cc1cnc(C(=O)NCCc2ccc(S(=O)(=O)NC(=O)NC3CCCCC3)cc2)cn1 | active
O=c1[nH]cc(F)c(=O)[nH]1 | active
COc1cc2nc(N3CCN(C(=O)C4COc5ccccc5O4)CC3)nc(N)c2cc1OC (stereo not given) | active
CCCCc1oc2ccccc2c1C(=O)c1cc(I)c(OCCN(CC)CC)c(I)c1 | active

// param item: "CN(C)CCCN1c2ccccc2CCc2ccc(Cl)cc21" ; yields the recorded call active

Hi, sorry to bother you, what did the test record for "CC[C@@]1(O)C(=O)OCc2c1cc1n(c2=O)Cc2cc3c(CN(C)C)c(O)ccc3nc2-1" ? active

How was "C[C@@H]1CC(=O)NN=C1c1ccc(NN=C(C#N)C#N)cc1" classified in this test? active

Status in this test for "Cn1cnc2c1c(=O)[nH]c(=O)n2C" ? active

Outcome logged for "COc1cc2c(c(OC)c1OC)-c1ccc(OC)c(=O)cc1[C@@H](NC(C)=O)CC2" in this assay: inactive

Test call for this compound, please: CC(C)Cc1ccc(C(C)C(=O)O)cc1 (stereo not given) inactive

Dear colleague, could you share the recorded outcome for "CC[N+](CC)(CC)CCOc1cccc(OCC[N+](CC)(CC)CC)c1OCC[N+](CC)(CC)CC" when you have a moment? inactive

###

Consider the following compounds and their measured Z-AUC readings.
assay: qHTS drug screen for cell cycle checkpoint inhibitors in PARPi-resistant BRCA-mutant ovarian cancer cell lines. (AID 1963452); conditions: PEO1/OlaR viability, CellTiter-Glo luminescence, 96 h; measured here: PEO1 parental Z-AUC; stronger effect = lower value
Would you mind answering with just the numeric figure?

Sample answers from the record:
Clc1ccccc1C(c1ccccc1)(c1ccccc1)n1ccnc1 | -1.06
CCN1CCCC1CNC(=O)c1cc(S(=O)(=O)CC)c(N)cc1OC (stereo not given) | 0.594
NC(CO)C(=O)NNCc1ccc(O)c(O)c1O (stereo not given) | -0.392
CC#C[C@]1(O)CC[C@H]2[C@@H]3CCC4=CC(=O)CCC4=C3[C@@H](c3ccc(N(C)C)cc3)C[C@@]21C | 0.225

Continue with the compound presented below.
Item under review: "CC(C)C(=O)Nc1ccc([N+](=O)[O-])c(C(F)(F)F)c1" . Reported Z-AUC? -0.423

###

Tested on: CP194
Experiment: qHTS profiling for inhibitors of Plasmodium falciparum proliferation (AID 504749); note: nearly all actives have a fitted effect of over 60% in size
Settings: P. falciparum in erythrocytes, SYBR Green DNA, 72 h; series mostly up to 28.7 µM
Procedure: NIH National Institute of Allergy and Infectious Diseases [NIAID] NIH Chemical Genomics Center [NCGC] […] Because mature erythrocytes lack DNA, only Plasmodium-derived DNA is detected. NCGC Assay Protocol Summary: The SYBR Green viability assay was adapted from a method described previously (Plouffe et al., 2008). […] The following morning, fluorescence intensity at 485(14) nm excitation and 535(25) nm emission wavelengths was measured on an EnVision (Perkin Elmer) plate reader. […]
Results filed as inconclusive are left out. Activity calls are given as the source filed them. The call rests on the fitted dose curve; in most records, active means well fitted inhibition curve with a large enough effect; inconclusive means small, poorly fitted or top-dose-only effect; inactive means flat fitted curve, though single readings scatter.
Hello, when you answer, please use one of the following outcomes: active, inactive

NC(=O)OCC(COC(N)=O)c1ccccc1 | inactive
CN(Cc1cnc2nc(N)nc(N)c2n1)c1ccc(C(=O)N[C@@H](CCC(=O)O)C(=O)O)cc1 | inactive
CC(C)NCC(O)c1ccc(O)c(O)c1 (configuration not stated) | inactive
CN1CCN2c3ccccc3Cc3ccccc3C2C1 (configuration not stated) | inactive
CCCNCC(O)COc1ccccc1C(=O)CCc1ccccc1 (configuration not stated) | active
O=c1c(-c2ccc(O)cc2)coc2cc(O)cc(O)c12 | inactive

Status in this test for "CN(C)c1nc(N(C)C)nc(N(C)C)n1" ? inactive

I would be grateful if you could indicate the recorded call for "CC(C)(C)C(=O)Oc1ccc(S(=O)(=O)Nc2ccccc2C(=O)NCC(=O)O)cc1" . inactive

Recorded test outcome, item "CN1CCC(=C2c3ccccc3C=Cc3ccccc32)CC1" inactive
